tested on: 786-0; assay: NCI tumour cell line growth inhibition, 48 h
Calls of active or inactive are those of the source. No stated cut-off is given here; in the data, active = GI50 up to about 1.1 µM and inactive = higher.
Returns: one label drawn from yes for active, no for inactive

>  <MOLECULE>
Cc1ccc(NS(=O)(=O)c2cc(C(C)(C)C)ccc2OCCOCCOCCOc2ccc(C(C)(C)C)cc2S(=O)(=O)Nc2ccc(C)cc2)cc1

>  <CLASS_NAME>
no

$$$$
>  <MOLECULE>
COc1cc(CCNC2=CC(=O)c3ncccc3C2=O)ccc1O

>  <CLASS_NAME>
no

$$$$
>  <MOLECULE>
C=C(CCCCCCCCC)CC(=O)SCCNC(=O)CCNC(=O)C(O)C(C)(C)COP(=O)(O)OP(=O)(O)OCC1OC(n2cnc3c(N)ncnc32)C(O)C1OP(=O)(O)O (stereo not given)

>  <CLASS_NAME>
no

$$$$
>  <MOLECULE>
CCOC(=O)C(NC(=O)c1nc[nH]c1/N=N/N(C)C)C(C)C (stereo not given)

>  <CLASS_NAME>
no

$$$$
>  <MOLECULE>
O=C1NN=C2C=C(c3ccc(Cl)cc3)CC(c3cccc(Cl)c3)C12 (stereo not given)

>  <CLASS_NAME>
no

$$$$
>  <MOLECULE>
O=c1c2cc(-c3ccccc3)sc2nc2n1N=C(c1ccccc1)CS2

>  <CLASS_NAME>
no

$$$$
>  <MOLECULE>
N#Cc1c(N)nc(Sc2ccccc2N)c(C#N)c1-c1ccccc1

>  <CLASS_NAME>
no

$$$$
>  <MOLECULE>
CC(C)=CCC[C@@H](C)C1=C(N)C(=O)C(C)=C(O)C1=O

>  <CLASS_NAME>
no

$$$$

What call does the record list for S=c1nc2c(c[nH]1)C1c3ccccc3C2c2ccccc21 ?
no

What call does the record list for Cn1cc(NC(=O)Nc2cc(C(=O)Nc3cc(C(=O)Nc4ccc5cc(S(=O)(=O)O)cc(S(=O)(=O)O)c5c4)n(C)c3)n(C)c2)cc1C(=O)Nc1cc(C(=O)Nc2ccc3cc(S(=O)(=O)O)cc(S(=O)(=O)O)c3c2)n(C)c1 ?
no

What call does the record list for O=[N+]([O-])C(/C=C(\Cl)[N+](=O)[O-])=C(N1CCOCC1)N1CCOCC1 ?
no

What call does the record list for Cc1cc2nc3c(N)nn(CCN(C)C)c3nc2cc1C ?
no

What call does the record list for CC[S+]1C2=C(CC(C)(C)CC2=O)[N-]c2ccccc21 (stereo not given) ?
no

What call does the record list for CC1CN=C(Nc2ccc(F)c(Cl)c2)S1 (stereo not given) ?
no

What call does the record list for C=CCCCC1CCCNC1=S (stereo not given) ?
no

What call does the record list for O=[N+]([O-])c1ccc(/C(=C\c2ccccc2)Cn2ccnc2)cc1 ?
no

---

test system: UACC-62; test: NCI tumour cell line growth inhibition, 48 h
Calls of active or inactive are those of the source. Rule as the data show it: active = GI50 up to about 1.1 µM and inactive = higher.
Below: a set of entries, each annotated with reported GI50.

Completed entries (count: 3):
>  <MOLECULE>
O=C(Nc1ccc2c(c1)oc(=O)c1ccccc12)C(Cl)Cl

>  <GI50>
36.6 µM (inactive)

$$$$
>  <MOLECULE>
O=c1ccn(C2(CO)C=C(CO)C(O)C2O)c(=O)[nH]1 (stereo unspecified)

>  <GI50>
> 25.7 µM (inactive)

$$$$
>  <MOLECULE>
COC1=CC23C=CC1[C@@H](c1ccccc1)C2=C(C)C(=O)N3C(=O)NC1CCCCC1 (stereo partly specified)

>  <GI50>
26.5 µM (inactive)

$$$$

Input CNC(=O)OCC1C2=C(C(=O)C(C)=C(N)C2=O)N2CC3C(N3C)C12OC (stereo unspecified) , output reported GI50.
9.93 µM (inactive)
